- experimental-target: ELIC D113A (Dickeya chrysanthemi, UniProt P0C7B7, D113A/INS163G)
- method-summary: Two-electrode voltage clamp, ELIC D113A in oocytes
- details: Schild analysis, read-out: Ki app
attribute-measured: Ki (mM)
Answers are plain numbers, in mM.

Task: # assay system ELIC D113A (Dickeya chrysanthemi, UniProt P0C7B7, D113A/INS163G): give Ki of [Ca+2] [Ca^2+, calcium]
Output: 4.9

* * *

- experimental-target: ELIC R91A (Dickeya chrysanthemi, UniProt P0C7B7, INS163G/R91A)
- Construct: expressed in transfected cells; host or cells: X. laevis oocytes
- method-summary: Two-electrode voltage clamp, ELIC R91A in oocytes
- Format: cell-based, Erwinia chrysanthemi
- details: R91A; TMA 50 mM; agonist cysteamine
attribute-measured: EC50 (µM)
Answers are plain numbers, in µM.

Task: For the compound `NCCS` , give its reported EC50.
Output: 590

* * *

- experimental-target: ELIC S84A (Dickeya chrysanthemi, UniProt P0C7B7, INS163G/S84A)
- Construct: expressed in transfected cells; host or cells: X. laevis oocytes
- method-summary: Two-electrode voltage clamp, ELIC S84A in oocytes
- Assay type: cell-based, Erwinia chrysanthemi
- details: S84A; Ca^2+ 5 mM; agonist cysteamine
attribute-measured: pEC50
Answers are plain numbers, as −log10 of the molar value.

Task: Provide pEC50 value for the following molecule: `NCCS`
Output: 2.56

* * *

- experimental-target: ELIC WT (Dickeya chrysanthemi, UniProt P0C7B7)
- Construct: expressed in transfected cells; host or cells: X. laevis oocytes (cRNA injection, pTLN vector)
- method-summary: cell-based
- Type: cell-based, Erwinia chrysanthemi
- details: WT/BAPTA; Ca^2+ 0.25 mM; agonist cysteamine
attribute-measured: pEC50
Answers are plain numbers, as −log10 of the molar value.

Task: Assign pEC50 to the following record: NCCS [cysteamine]
Output: 3.08

* * *

- experimental-target: ELIC D158N (Dickeya chrysanthemi, UniProt P0C7B7, D158N/INS163G)
- Construct: expressed in transfected cells; host or cells: X. laevis oocytes
- method-summary: Two-electrode voltage clamp, ELIC D158N in oocytes
- Assay type: cell-based, Erwinia chrysanthemi
- details: Ca^2+ 1 mM, agonist cysteamine
attribute-measured: EC50 (mM)
Answers are plain numbers, in mM.

Task: For ELIC D158N (Dickeya chrysanthemi, UniProt P0C7B7, D158N/INS163G), give EC50 of the listed molecule: NCCS [cysteamine]
Output: 5.61

* * *

- experimental-target: ELIC D113A/D158A (Dickeya chrysanthemi, UniProt P0C7B7, D113A/D158A/INS163G)
- Construct: expressed in transfected cells; host or cells: X. laevis oocytes
- method-summary: cell-based
- Format: cell-based, Erwinia chrysanthemi
- details: 113A/158A; Zn^2+ 0.01 mM; agonist propylamine
attribute-measured: EC50 (mM)
One number for each entry, in mM.

Task: State, in one line, measured EC50 of `CCCN`
Output: 4.56

* * *

- experimental-target: ELIC WT (Dickeya chrysanthemi)
- Construct: expressed in transfected cells; host or cells: X. laevis oocytes (cRNA injection, pTLN vector)
- method-summary: cell-based
- Type: cell-based, Erwinia chrysanthemi
- details: WT; Mg^2+ 1 mM; agonist cysteamine
attribute-measured: EC50 (µM)
Numbers only, in µM.

Task: Enter recorded EC50 with ELIC WT (Dickeya chrysanthemi) for `NCCS` here.
Output: 1040

* * *

- experimental-target: ELIC D113A/D158A (Dickeya chrysanthemi, UniProt P0C7B7, D113A/D158A/INS163G)
- Construct: expressed in transfected cells; host or cells: X. laevis oocytes
- method-summary: cell-based
- Type: cell-based, Erwinia chrysanthemi
- details: 113A/158A; Zn^2+ 0 mM; agonist propylamine
attribute-measured: pEC50
Answers are plain numbers, as −log10 of the molar value.

Task: Return pEC50 (reported value) for this compound: CCCN [propylamine]
Output: 2.43

* * *

- experimental-target: ELIC WT (Dickeya chrysanthemi, UniProt P0C7B7, INS163G)
- Construct: expressed in transfected cells; host or cells: X. laevis oocytes (cRNA injection, pTLN vector)
- method-summary: cell-based
- Assay type: cell-based, Erwinia chrysanthemi
- details: WT; Schild plot x-intercept (log of mM); agonist cysteamine; −40 mV
Exercise: for every item that follows, state its recorded pA.
Numbers only.

See these solved cases before continuing.
>  <structure-smiles>
[Ba+2]

>  <pA>
−0.07

$$$$
>  <structure-smiles>
[Sr+2]

>  <pA>
−0.07

$$$$
>  <structure-smiles>
[Ca+2]

>  <pA>
−0.57

$$$$
>  <structure-smiles>
[Mg+2]

>  <pA>
−0.36

$$$$

Now consider the entry below.
Task: State its pA for this molecule: `CC(=O)OCC[N+](C)(C)C`
Output: 0.21

* * *

- experimental-target: ELIC D113A/D158A (Dickeya chrysanthemi, UniProt P0C7B7, D113A/D158A/INS163G)
- Construct: expressed in transfected cells; host or cells: X. laevis oocytes
- method-summary: cell-based
- Assay type: cell-based, Erwinia chrysanthemi
- details: 113A/158A; Ba^2+ 1 mM; agonist cysteamine
- Method: Constructs containing the gene of either the WT or mutant channels preceded by the signal sequence of the chicken α7nAchR were cloned into the pTLN vector for expression in X. laevis oocytes. […] Currents were recorded in bath solutions containing 10 mM HEPES (pH 7), 130 mM NaCl, and the indicated concentrations of cysteamine and divalent cations. […]
attribute-measured: pEC50
Numbers only, as −log10 of the molar value.

Task: Give ELIC D113A/D158A (Dickeya chrysanthemi, UniProt P0C7B7, D113A/D158A/INS163G) pEC50 for the following molecule: NCCS [cysteamine]
Output: 2.51

* * *

- experimental-target: ELIC WT (Dickeya chrysanthemi, UniProt P0C7B7)
- Construct: expressed in transfected cells; host or cells: X. laevis oocytes (cRNA injection, pTLN vector)
- method-summary: cell-based
- Type: cell-based, Erwinia chrysanthemi
- details: WT; Ca^2+ 1.0 mM; agonist cysteamine
attribute-measured: EC50 (µM)
Numbers only, in µM.

Task: Tell us which EC50 value is on record for `NCCS`
Output: 1730

* * *

- experimental-target: ELIC E150A (Dickeya chrysanthemi, UniProt P0C7B7, E150A/INS163G)
- Construct: expressed in transfected cells; host or cells: X. laevis oocytes
- method-summary: Two-electrode voltage clamp, ELIC E150A in oocytes
- Format: cell-based, Erwinia chrysanthemi
- details: Ca^2+ 10 mM, agonist cysteamine
attribute-measured: pEC50
Give bare numbers, as −log10 of the molar value.

Task: Tell me pEC50 reported for NCCS [cysteamine]
Output: 2.05

* * *

- experimental-target: ELIC WT (Dickeya chrysanthemi)
- Construct: expressed in transfected cells; host or cells: X. laevis oocytes (cRNA injection, pTLN vector)
- method-summary: cell-based
- Assay type: cell-based, Erwinia chrysanthemi
- details: WT/0.5Ca^2+; ACh 5 mM; agonist cysteamine
attribute-measured: EC50 (mM)
Give bare numbers, in mM.

Task: Please list EC50 recorded for the compound `NCCS`
Output: 4.03

* * *

- experimental-target: ELIC E150Q (Dickeya chrysanthemi, UniProt P0C7B7, E150Q/INS163G)
- Construct: expressed in transfected cells; host or cells: X. laevis oocytes
- method-summary: Two-electrode voltage clamp, ELIC E150Q in oocytes
- Format: cell-based, Erwinia chrysanthemi
- details: Ca^2+ 1 mM, agonist cysteamine
attribute-measured: pEC50
Answers are plain numbers, as −log10 of the molar value.

Task: Enter pEC50 (test system ELIC E150Q (Dickeya chrysanthemi, UniProt P0C7B7, E150Q/INS163G)) for NCCS [cysteamine]
Output: 2.28

* * *

- experimental-target: ELIC WT (Dickeya chrysanthemi, UniProt P0C7B7, INS163G)
- Construct: expressed in transfected cells; host or cells: X. laevis oocytes (cRNA injection, pTLN vector)
- method-summary: cell-based
- Type: cell-based, Erwinia chrysanthemi
- details: WT; Schild analysis; agonist cysteamine; read-out: Ki app
- Procedure: Constructs containing the gene of either the WT or mutant channels preceded by the signal sequence of the chicken α7nAchR were cloned into the pTLN vector for expression in X. laevis oocytes. […] Currents were recorded in bath solutions containing 10 mM HEPES (pH 7), 130 mM NaCl, and the indicated concentrations of cysteamine and divalent cations. […]
attribute-measured: Ki (µM)
Numbers only, in µM.

Here's what some known entries look like.
>  <structure-smiles>
[Mg+2]

>  <unit>
µM

>  <Ki>
430

$$$$
>  <structure-smiles>
[Ba+2]

>  <unit>
µM

>  <Ki>
850

$$$$
>  <structure-smiles>
[Ca+2]

>  <unit>
µM

>  <Ki>
260

$$$$

Please look at the following compound next.
Task: Please give the documented Ki of `[Sr+2]`
Output: 850
